Biological target: UniProt P20813
Sequence (P20813 whole entry): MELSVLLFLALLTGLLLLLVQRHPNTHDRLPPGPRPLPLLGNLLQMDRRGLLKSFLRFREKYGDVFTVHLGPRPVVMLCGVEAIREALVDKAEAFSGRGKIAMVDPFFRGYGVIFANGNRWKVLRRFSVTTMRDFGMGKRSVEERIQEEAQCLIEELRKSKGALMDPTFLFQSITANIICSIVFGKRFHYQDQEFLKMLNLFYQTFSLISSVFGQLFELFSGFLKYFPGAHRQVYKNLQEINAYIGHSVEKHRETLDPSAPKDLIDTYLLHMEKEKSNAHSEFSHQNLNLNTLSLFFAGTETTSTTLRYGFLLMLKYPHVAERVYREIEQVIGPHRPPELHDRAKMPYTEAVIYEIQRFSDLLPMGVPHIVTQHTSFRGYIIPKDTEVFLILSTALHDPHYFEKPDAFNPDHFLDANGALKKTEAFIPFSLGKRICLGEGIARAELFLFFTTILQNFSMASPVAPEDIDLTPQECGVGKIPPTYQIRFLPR
Test: CYP panel profile: P450 inhibition, CYP-2B6
Type: in vitro ADME
Conditions: human liver microsomes
pIC50: −log10 of the molar value.
# pIC50 per record follows

Reference set, count: 3
{"columns": ["Structure String", "pIC50"],
 "data": [
  ["O=C(c1ccc(F)c(F)c1)n1c(-c2ccc(-c3ccccc3)cc2)nc2cc(Cl)ccc21", "< 4.30"],
  ["O=C(c1ccc(F)c(F)c1)n1c(-c2cccc3ccccc23)cc2cc(Cl)ccc21", "< 4.30"],
  ["COC(=O)c1ccc2nc(-c3cccc4ccccc34)n(C(=O)c3ccc(F)c(F)c3)c2c1", "< 4.32"]
]}

The recorded pIC50 for Clc1ccc2c(c1)nc1n2Cc2cccc3cccc-1c23 is < 4.30

====

Biological target: aryl hydrocarbon receptor (AhR) (Mus musculus (Mouse), UniProt P30561)
Sequence (P30561 10-805): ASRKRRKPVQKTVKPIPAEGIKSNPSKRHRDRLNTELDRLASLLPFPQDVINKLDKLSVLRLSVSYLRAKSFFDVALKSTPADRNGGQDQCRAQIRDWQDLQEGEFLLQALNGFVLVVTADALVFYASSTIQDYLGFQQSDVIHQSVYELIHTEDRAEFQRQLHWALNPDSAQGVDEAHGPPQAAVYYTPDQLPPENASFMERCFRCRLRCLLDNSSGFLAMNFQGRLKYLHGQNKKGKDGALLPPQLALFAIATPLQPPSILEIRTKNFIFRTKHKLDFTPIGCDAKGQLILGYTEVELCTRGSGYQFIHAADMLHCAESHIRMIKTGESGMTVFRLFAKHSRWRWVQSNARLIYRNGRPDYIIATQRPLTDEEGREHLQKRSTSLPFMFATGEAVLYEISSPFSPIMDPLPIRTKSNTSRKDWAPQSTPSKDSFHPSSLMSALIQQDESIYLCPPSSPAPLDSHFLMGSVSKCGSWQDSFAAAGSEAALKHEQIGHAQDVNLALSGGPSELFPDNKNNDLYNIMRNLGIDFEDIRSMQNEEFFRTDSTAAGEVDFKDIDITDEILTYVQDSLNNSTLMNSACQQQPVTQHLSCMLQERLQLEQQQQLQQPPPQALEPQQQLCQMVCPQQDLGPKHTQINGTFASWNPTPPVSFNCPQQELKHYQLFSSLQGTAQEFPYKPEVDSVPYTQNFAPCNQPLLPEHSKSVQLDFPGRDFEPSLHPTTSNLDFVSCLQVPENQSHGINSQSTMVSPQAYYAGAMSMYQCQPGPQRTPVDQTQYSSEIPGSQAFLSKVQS
Sequence (P53762 whole entry partner): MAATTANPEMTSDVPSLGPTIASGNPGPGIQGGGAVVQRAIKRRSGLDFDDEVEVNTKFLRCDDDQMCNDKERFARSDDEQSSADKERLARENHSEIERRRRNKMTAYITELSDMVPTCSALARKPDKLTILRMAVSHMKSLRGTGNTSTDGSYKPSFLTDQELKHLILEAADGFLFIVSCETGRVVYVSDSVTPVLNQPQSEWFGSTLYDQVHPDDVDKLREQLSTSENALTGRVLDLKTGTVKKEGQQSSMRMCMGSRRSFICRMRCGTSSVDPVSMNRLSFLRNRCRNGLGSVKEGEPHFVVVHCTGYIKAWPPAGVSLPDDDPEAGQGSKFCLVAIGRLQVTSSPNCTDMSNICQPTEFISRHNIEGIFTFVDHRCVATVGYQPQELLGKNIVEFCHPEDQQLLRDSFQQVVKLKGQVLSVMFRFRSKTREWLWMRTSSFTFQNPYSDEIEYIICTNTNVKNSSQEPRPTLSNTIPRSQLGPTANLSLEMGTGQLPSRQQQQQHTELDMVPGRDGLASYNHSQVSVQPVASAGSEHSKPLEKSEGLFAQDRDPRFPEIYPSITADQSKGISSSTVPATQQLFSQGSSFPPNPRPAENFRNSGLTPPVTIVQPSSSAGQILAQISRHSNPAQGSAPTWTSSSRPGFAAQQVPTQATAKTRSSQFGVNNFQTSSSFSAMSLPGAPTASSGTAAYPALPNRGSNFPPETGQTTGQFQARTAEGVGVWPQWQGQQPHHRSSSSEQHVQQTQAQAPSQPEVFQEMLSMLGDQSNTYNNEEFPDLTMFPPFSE
Assay: AhR ligand screening: AhRE-luciferase reporter in transfected Hepa1 cells
Assay type: cell-based
Settings: fold change of luciferase expression at 10 uM test compound relative to vehicle (0.1% DMSO)
# Fold @ 10 uM per record follows
Respond with the bare value in fold.

Reference set, count: 5
{"columns": ["Structure String", "Measured Target", "Fold @ 10 uM, fold"],
 "data": [
  ["O=C(c1ccc2nc(-c3cccc4ccccc34)n(S(=O)(=O)c3ccc4ccccc4c3)c2c1)N1CCOCC1", "aryl hydrocarbon receptor (AhR) (Mus musculus (Mouse), UniProt P30561)", 3],
  ["O=S(=O)(C1CC1)n1c(-c2cccc3ccccc23)nc2cc(Cl)ccc21", "aryl hydrocarbon receptor (AhR) (Mus musculus (Mouse), UniProt P30561)", 24],
  ["O=C(c1ccccc1)n1c(-c2ccc3ccccc3c2)nc2ccc(F)cc21", "aryl hydrocarbon receptor (AhR) (Mus musculus (Mouse), UniProt P30561)", 34],
  ["CCc1ccc(S(=O)(=O)n2c(-c3cccc4ccccc34)nc3cc(Cl)ccc32)cc1", "aryl hydrocarbon receptor (AhR) (Mus musculus (Mouse), UniProt P30561)", 25],
  ["O=S(=O)(c1ccc(C(F)(F)F)cc1)n1c(-c2cccc3ccccc23)nc2cc(Cl)ccc21", "aryl hydrocarbon receptor (AhR) (Mus musculus (Mouse), UniProt P30561)", 24]
]}

The recorded Fold @ 10 uM for O=C(c1ccc(F)c(F)c1)n1c(-c2ccc(F)c(Cl)c2)nc2ccc(Cl)cc21 is 15

The recorded Fold @ 10 uM for O=C(c1ccc(F)c(F)c1)n1c(-c2cccc(-c3ccccc3)c2)nc2cc(Cl)ccc21 is 2

The recorded Fold @ 10 uM for COc1ccc(C(=O)n2c(-c3cc4ccccc4s3)nc3cc(F)ccc32)cc1 is 22

The recorded Fold @ 10 uM for COC(=O)c1ccc2nc(-c3cccc4ccccc34)n(S(=O)(=O)c3ccc(Cl)cc3)c2c1 is 6

The recorded Fold @ 10 uM for O=C(c1ccc2nc(-c3cccc4ccccc34)n(Cc3ccc(F)cc3)c2c1)N1CCOCC1 is 6

The recorded Fold @ 10 uM for COc1ccc(C(=O)c2c[nH]c3ccc(Cl)cc23)cc1 is 7

The recorded Fold @ 10 uM for Cc1cccc(-c2nc3cc(Cl)ccc3n2C(=O)c2ccc(F)c(F)c2)c1Cl is 26

The recorded Fold @ 10 uM for O=C(c1cnc2ccccc2c1)n1c(-c2cccc3ccccc23)nc2cc(Cl)ccc21 is 44

The recorded Fold @ 10 uM for Cc1ccc2c(c1)nc(-c1cccc3ccccc13)n2C(=O)c1ccccc1 is 35

The recorded Fold @ 10 uM for O=C1c2ccccc2-c2nc3ccc(Cl)cc3n21 is 4

The recorded Fold @ 10 uM for O=C(C1CC1)n1c(-c2cccc3ccccc23)cc2cc(Cl)ccc21 is 45

Provenance of the data: patent US12473262B2
